subject-of-test: T1, rat serum albumin (rat, UniProt P02770 25-608)
T1 construct: Bought protein, immobilized on a CM5 chip by amine coupling; also called Rat SA
procedure-text: SPR (Biacore 8K), albumin immobilized on CM5 chip, 25 C, 1:1 kinetic fit
Description: The immobilization of the serum albumin to a Series S Sensor Chip CM5 surface is performed according to the manufacturer's instructions (Amine Coupling Kit BR-1000-50). Briefly, carboxyl groups on the sensor chip surfaces (flow cell 1 and 2) are activated by injecting 70 μL of a mixture containing 75 mg/mL EDC and 11.5 mg/mL NHS at 10 μL/min. […]
endpoint-label: koff (s⁻¹)
A number alone suffices; assume s⁻¹.

RLN Analog 8 (other, Single-chain fusion: VHH - (PGPQ)8 L1 - RLN2 B chain (desB1) - L2 - RLN2 A chain) EVQLLESGGGLVQPGGSLRLSCAASGRYIDETAVAWFRQAPGKGREFVAGIGGGVDITYYADSVKGRFTISRDNSKNTLYLQMNSLRPEDTAVYYCAARPGRPLITSKVADLYPYWGQGTLVTVSSPGPQPGPQPGPQPGPQPGPQPGPQPGPQPGPQSWMEEVIKLCGRELVRAQIAICGMSTWSGGGSGGSGGGQLYSALANKCCHVGCTKRSLARFC; 0.0028

Attention now turns to another entry.
Input line: Tell me the measured koff of RLN Analog 7 (other, Single-chain fusion: VHH - (G4Q)5 L1 - RLN2 B chain (desB1) - L2 - RLN2 A chain) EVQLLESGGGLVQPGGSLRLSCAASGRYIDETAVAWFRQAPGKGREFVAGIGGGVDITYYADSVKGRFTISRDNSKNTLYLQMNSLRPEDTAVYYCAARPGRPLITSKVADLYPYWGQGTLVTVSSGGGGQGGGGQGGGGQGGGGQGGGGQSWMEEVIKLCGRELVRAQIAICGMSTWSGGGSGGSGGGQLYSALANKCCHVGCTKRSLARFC , please.
Output line: 0.0028
